Tested on: Mycobacterium tuberculosis Erdman (autoluminescent)
measurement notes: AUC25, normalised area under dose response up to IC25 (fraction (0-1)); higher = more potent at low dose
measurement setup: in vitro model: cholesterol 0.05 mM; time point: constant (~7 days, model-specific)
AUC25 overview
experimental endpoint: AUC25

compound="COc1c(N2C[C@@H]3CCCN[C@@H]3C2)c(F)cc2c(=O)c(C(=O)O)cn(C3CC3)c12 [moxifloxacin] + CO[C@H]1/C=C/O[C@@]2(C)Oc3c(C)c(O)c4c(O)c(c(/C=N/N5CCN(C6CCCC6)CC5)c(O)c4c3C2=O)NC(=O)/C(C)=C\\C=C\\[C@H](C)[C@H](O)[C@@H](C)[C@@H](O)[C@@H](C)[C@H](OC(C)=O)[C@@H]1C [rifapentine]" target_under_test="Mycobacterium tuberculosis Erdman (autoluminescent)" experimental_endpoint=AUC25 reading=0.131
compound="COc1nc2ccc(Br)cc2cc1[C@@H](c1ccccc1)[C@@](O)(CCN(C)C)c1cccc2ccccc12 [bedaquiline] + NC(=O)c1cnccn1 [pyrazinamide]" target_under_test="Mycobacterium tuberculosis Erdman (autoluminescent)" experimental_endpoint=AUC25 reading=0.101
compound="CC[C@@H](CO)NCCN[C@@H](CC)CO [ethambutol] + O=[N+]([O-])c1cn2c(n1)OC[C@@H](OCc1ccc(OC(F)(F)F)cc1)C2 [pretomanid]" target_under_test="Mycobacterium tuberculosis Erdman (autoluminescent)" experimental_endpoint=AUC25 reading=0.12
compound="COc1c(N2C[C@@H]3CCCN[C@@H]3C2)c(F)cc2c(=O)c(C(=O)O)cn(C3CC3)c12 [moxifloxacin] + CO[C@H]1/C=C/O[C@@]2(C)Oc3c(C)c(O)c4c(O)c(c(/C=N/N5CCN(C)CC5)c(O)c4c3C2=O)NC(=O)/C(C)=C\\C=C\\[C@H](C)[C@H](O)[C@@H](C)[C@@H](O)[C@@H](C)[C@H](OC(C)=O)[C@@H]1C [rifampicin]" target_under_test="Mycobacterium tuberculosis Erdman (autoluminescent)" experimental_endpoint=AUC25 reading=0.117

----------
Tested on: Mycobacterium tuberculosis Erdman (autoluminescent)
measurement notes: GRinf, maximum normalised growth rate inhibition (three-drug combination) (unitless (-1 to 1)); higher = less effect (negative = killing)
measurement setup: in vitro model: intracellular J774; time point: constant = terminal
Form field: GRinf (one value per entry).
experimental endpoint: GRinf

molecule="COc1nc2ccc(Br)cc2cc1[C@@H](c1ccccc1)[C@@](O)(CCN(C)C)c1cccc2ccccc12 [bedaquiline] + CC[C@@H](CO)NCCN[C@@H](CC)CO [ethambutol] + CO[C@H]1/C=C/O[C@@]2(C)Oc3c(C)c(O)c4c(O)c(c(/C=N/N5CCN(C)CC5)c(O)c4c3C2=O)NC(=O)/C(C)=C\\C=C\\[C@H](C)[C@H](O)[C@@H](C)[C@@H](O)[C@@H](C)[C@H](OC(C)=O)[C@@H]1C [rifampicin]" reading=-0.188
molecule="CC(C)/N=c1\\cc2n(-c3ccc(Cl)cc3)c3ccccc3nc-2cc1Nc1ccc(Cl)cc1 [clofazimine] + CC(=O)NC[C@H]1CN(c2ccc(N3CCOCC3)c(F)c2)C(=O)O1 [linezolid] + O=[N+]([O-])c1cn2c(n1)OC[C@@H](OCc1ccc(OC(F)(F)F)cc1)C2 [pretomanid]" reading=-0.884
molecule="CC(C)/N=c1\\cc2n(-c3ccc(Cl)cc3)c3ccccc3nc-2cc1Nc1ccc(Cl)cc1 [clofazimine] + CC(=O)NC[C@H]1CN(c2ccc(N3CCOCC3)c(F)c2)C(=O)O1 [linezolid] + CO[C@H]1/C=C/O[C@@]2(C)Oc3c(C)c(O)c4c(O)c(c(/C=N/N5CCN(C6CCCC6)CC5)c(O)c4c3C2=O)NC(=O)/C(C)=C\\C=C\\[C@H](C)[C@H](O)[C@@H](C)[C@@H](O)[C@@H](C)[C@H](OC(C)=O)[C@@H]1C [rifapentine]" reading=-0.19
molecule="CC(C)/N=c1\\cc2n(-c3ccc(Cl)cc3)c3ccccc3nc-2cc1Nc1ccc(Cl)cc1 [clofazimine] + CC[C@@H](CO)NCCN[C@@H](CC)CO [ethambutol] + O=[N+]([O-])c1cn2c(n1)OC[C@@H](OCc1ccc(OC(F)(F)F)cc1)C2 [pretomanid]" reading=-0.321
molecule="COc1nc2ccc(Br)cc2cc1[C@@H](c1ccccc1)[C@@](O)(CCN(C)C)c1cccc2ccccc12 [bedaquiline] + NC(=O)c1cnccn1 [pyrazinamide] + CO[C@H]1/C=C/O[C@@]2(C)Oc3c(C)c(O)c4c(O)c(c(/C=N/N5CCN(C)CC5)c(O)c4c3C2=O)NC(=O)/C(C)=C\\C=C\\[C@H](C)[C@H](O)[C@@H](C)[C@@H](O)[C@@H](C)[C@H](OC(C)=O)[C@@H]1C [rifampicin]" reading=-0.44
molecule="CC(C)/N=c1\\cc2n(-c3ccc(Cl)cc3)c3ccccc3nc-2cc1Nc1ccc(Cl)cc1 [clofazimine] + CC[C@@H](CO)NCCN[C@@H](CC)CO [ethambutol] + COc1c(N2C[C@@H]3CCCN[C@@H]3C2)c(F)cc2c(=O)c(C(=O)O)cn(C3CC3)c12 [moxifloxacin]" reading=-0.457
